Molecular target: His6-ERα298-554 Y537S mutant (ERα ligand-binding domain) (Homo sapiens (Human), UniProt P03372, Y537S)
Sequence (P03372 298-554 Y537S): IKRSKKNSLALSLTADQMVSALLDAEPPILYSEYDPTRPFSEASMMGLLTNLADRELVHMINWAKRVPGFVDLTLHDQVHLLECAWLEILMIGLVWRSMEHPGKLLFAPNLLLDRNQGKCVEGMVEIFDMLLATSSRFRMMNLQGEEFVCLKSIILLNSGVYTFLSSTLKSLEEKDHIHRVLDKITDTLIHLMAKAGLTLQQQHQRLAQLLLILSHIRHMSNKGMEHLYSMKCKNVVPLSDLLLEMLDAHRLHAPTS
Assay: Test A: biochemical antagonist activity, LanthaScreen TR-FRET ERα coactivator assay, Y537S mutant
Conditions: asterisk (*): protocol using 10 nM estradiol; read-out: Antagonism Y537S IC50
Protocol: Test A: Biochemical Antagonist Activity on Wild Type (WT) and Mutants Estrogen Receptors Test A involves measuring the in vitro antagonist activity of the compounds of the invention on estrogen receptors. […] Antagonistic potency of compounds was evaluated using LanthaScreen® TR-FRET ERα Coactivator Assay (ThermoFisher) with modifications. […] The assay works in a homogeneous mix-and-read format. […]

{"MOLECULE": "Oc1ccc2c(c1)C(c1ccc(O[C@H]3CCN(CCCF)C3)cc1)=C(c1ccc(OC(F)(F)F)cc1F)CC2", "REPORTED RELATION": ">", "IC50 [nM]": 4000}
{"MOLECULE": "CC(C)(C)c1ccc(C2=C(c3ccc(O[C@H]4CCN(CCCF)C4)cc3)c3ccc(O)cc3SC2)c(F)n1", "REPORTED RELATION": ">", "IC50 [nM]": 4000}
{"MOLECULE": "Oc1ccc2c(c1)SCC(c1ccc3ncccc3c1)=C2c1ccc(O[C@H]2CCN(CCCF)C2)cc1", "REPORTED RELATION": "=", "IC50 [nM]": 1280}
{"MOLECULE": "Oc1ccc2c(c1)OCCC(c1ccc3c(c1)CCO3)=C2c1ccc(O[C@H]2CCN(CCCF)C2)cc1", "REPORTED RELATION": "=", "IC50 [nM]": 68}
{"MOLECULE": "CCOc1ccc(C2=C(c3ccc(O[C@H]4CCN(CCCF)C4)nc3)c3ccc(O)cc3CCC2)c(F)n1", "REPORTED RELATION": "=", "IC50 [nM]": 4}
{"MOLECULE": "Oc1ccc2c(c1)CCCC(c1ccc(Cl)cc1Cl)=C2c1ccc(N[C@H]2CCN(CCCF)C2)cc1", "REPORTED RELATION": "=", "IC50 [nM]": 15}
{"MOLECULE": "Cc1cc(C2=C(c3ccc(O[C@H]4CCN(CCCF)C4)cc3)c3ccc(C(=O)O)cc3SCC2)ccc1Cl", "REPORTED RELATION": "=", "IC50 [nM]": 475}
{"MOLECULE": "COc1ccc(C2=C(c3ccc(O[C@H]4CCN(CCCF)C4)cc3)c3ccc(O)cc3SCC2)c(F)c1", "REPORTED RELATION": "=", "IC50 [nM]": 19}
{"MOLECULE": "Cc1ccc(C2=C(c3ccc(O[C@H]4CCN(CCCF)C4)nc3)c3ccc(O)cc3SCC2)c(Cl)c1", "REPORTED RELATION": "=", "IC50 [nM]": 9}
{"MOLECULE": "CCOc1cc(Cl)ccc1C1=C(c2ccc(O[C@H]3CCN(CCCF)C3)cc2)c2ccc(O)cc2SC1", "REPORTED RELATION": "=", "IC50 [nM]": 673}
{"MOLECULE": "O=C1Cc2cc(C3=C(c4ccc(O[C@H]5CCN(CCCF)C5)cc4)c4ccc(O)cc4SC3)ccc2N1", "REPORTED RELATION": "=", "IC50 [nM]": 3600}
{"MOLECULE": "Cc1ccc(C2=C(c3ccc(O[C@H]4CCN(CCCF)C4)cc3)c3ccc(O)cc3[S+]([O-])C2)c(F)c1 (stereo partly drawn) [Example 57]", "REPORTED RELATION": ">", "IC50 [nM]": 4000}
{"MOLECULE": "Oc1ccc2c(c1)SCCC(c1ccc3c(c1)OC(F)(F)O3)=C2c1ccc(O[C@H]2CCN(CCCF)C2)cc1", "REPORTED RELATION": "=", "IC50 [nM]": 20}
{"MOLECULE": "CC/C(=C(/c1ccc(O[C@H]2CCN(CCCF)C2)cc1)c1ccc2[nH]ncc2c1)c1ccc(F)cc1Cl", "REPORTED RELATION": "=", "IC50 [nM]": 140}
{"MOLECULE": "CCOc1ccc(C2=C(c3ccc(O[C@H]4CCN(CCCF)C4)cc3)c3ccc(O)cc3SC2)c(C)c1", "REPORTED RELATION": "=", "IC50 [nM]": 127}
